Molecular target: T1, human SLC34A2 (human, UniProt O95436 1-690)
T1 construct: whole, on cells; also called human solute carrier 34 A2; NaPi2b
T1 sequence (looked up): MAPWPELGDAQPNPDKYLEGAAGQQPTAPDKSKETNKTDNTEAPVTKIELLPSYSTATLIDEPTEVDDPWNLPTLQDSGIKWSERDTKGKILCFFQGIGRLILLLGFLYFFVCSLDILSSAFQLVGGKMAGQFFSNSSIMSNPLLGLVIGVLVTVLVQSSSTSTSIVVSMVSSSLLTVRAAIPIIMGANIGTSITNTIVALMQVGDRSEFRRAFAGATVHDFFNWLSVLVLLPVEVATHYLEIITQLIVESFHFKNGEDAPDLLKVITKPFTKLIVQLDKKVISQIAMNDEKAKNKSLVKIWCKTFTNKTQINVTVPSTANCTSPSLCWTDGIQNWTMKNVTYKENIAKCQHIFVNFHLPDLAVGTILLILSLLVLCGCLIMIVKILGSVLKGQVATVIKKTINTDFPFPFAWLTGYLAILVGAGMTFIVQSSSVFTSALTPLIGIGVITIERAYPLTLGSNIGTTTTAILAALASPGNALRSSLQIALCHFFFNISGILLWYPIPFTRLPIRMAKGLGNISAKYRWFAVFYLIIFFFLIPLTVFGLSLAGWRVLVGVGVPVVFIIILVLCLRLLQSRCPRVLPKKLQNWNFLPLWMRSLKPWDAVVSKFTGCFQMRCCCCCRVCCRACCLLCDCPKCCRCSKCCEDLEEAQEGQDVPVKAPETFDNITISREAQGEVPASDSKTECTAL
Assay: FACS, OVCAR3 cells
Procedure: In this example, cell based binding of chimeric antibodies (hIgG1) prepared from the murine antibodies on human SLC34A2 expressing cells were assessed using flow cytometry. Briefly, OVCAR3 cells or HEK293 cells expressing human SLC34A2 were incubated with chimeric antibodies (from 200 nM, 4 folds dilution, 8 points). […] After that the cells were washed twice and analyzed by flow cytometry.
This section presents binders with their documented Top (MFI) values.
Answer in MFI, number only, no unit symbol.

xi94B10A8 hIgG1 (antibody, V domains shown, chimeric, hIgG1) VH: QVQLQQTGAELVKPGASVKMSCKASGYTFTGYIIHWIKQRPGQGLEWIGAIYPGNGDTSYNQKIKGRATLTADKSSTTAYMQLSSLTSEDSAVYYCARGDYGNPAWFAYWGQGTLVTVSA VL: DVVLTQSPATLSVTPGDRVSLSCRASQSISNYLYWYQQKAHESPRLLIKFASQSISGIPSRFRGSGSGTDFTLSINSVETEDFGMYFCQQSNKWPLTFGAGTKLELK; 39600

Here is the next item to consider.
Qu. Which Top (MFI) reading was recorded for the binder xi91C9F1 hIgG1 (antibody, V domains shown, chimeric, hIgG1) VH: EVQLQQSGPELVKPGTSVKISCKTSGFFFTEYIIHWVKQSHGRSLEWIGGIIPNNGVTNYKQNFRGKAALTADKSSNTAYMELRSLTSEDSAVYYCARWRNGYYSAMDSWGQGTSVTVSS VL: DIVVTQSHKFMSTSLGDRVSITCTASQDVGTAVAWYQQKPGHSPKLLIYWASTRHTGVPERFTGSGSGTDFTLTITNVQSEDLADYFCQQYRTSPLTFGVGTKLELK ?
Ans. 26400
